Target: biotinylated labeled human GPC3 protein (produced in-house) (human, UniProt P51654 25-559, limits assumed, biotinylated (Dojindo, Cat. No. LK03); sites not stated)
Assay: ELISA, biotinylated human GPC3 protein
MEASURED METRIC: OD450 at 66.66 nM (OD450)
The response must be a number in OD450 with no trailing unit.

Reported OD450 at 66.66 nM ( hAb006LH3L1b (antibody, human IgG1, V domains shown, Humanized F3.38.7; VH H3 + VL L1b; expressed as human IgG1) VH: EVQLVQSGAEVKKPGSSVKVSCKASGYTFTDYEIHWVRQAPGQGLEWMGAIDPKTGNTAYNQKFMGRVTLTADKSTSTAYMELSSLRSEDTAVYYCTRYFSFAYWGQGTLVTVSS VL: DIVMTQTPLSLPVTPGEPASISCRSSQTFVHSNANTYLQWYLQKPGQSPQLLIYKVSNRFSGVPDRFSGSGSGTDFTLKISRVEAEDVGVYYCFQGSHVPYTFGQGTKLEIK ) = 2.5

Reported OD450 at 66.66 nM ( hAb007LH3L1b (antibody, human IgG1, V domains shown, Humanized F3.81.19; VH H3 + VL L1b; expressed as human IgG1) VH: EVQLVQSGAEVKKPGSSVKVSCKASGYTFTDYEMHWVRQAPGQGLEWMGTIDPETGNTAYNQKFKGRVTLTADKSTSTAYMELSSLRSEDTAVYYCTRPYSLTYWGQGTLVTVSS VL: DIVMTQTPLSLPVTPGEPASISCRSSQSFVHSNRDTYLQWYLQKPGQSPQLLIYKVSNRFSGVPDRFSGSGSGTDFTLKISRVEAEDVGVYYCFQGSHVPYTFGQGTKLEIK ) = 2.29

Reported OD450 at 66.66 nM ( hAb001H2L1 (antibody, human IgG1, V domains shown, Humanized F2.169.2; VH H2 + VL L1; expressed as human IgG1) VH: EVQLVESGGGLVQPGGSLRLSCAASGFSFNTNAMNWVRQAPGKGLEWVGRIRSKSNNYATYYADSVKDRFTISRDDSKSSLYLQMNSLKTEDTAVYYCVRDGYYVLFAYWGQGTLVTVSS VL: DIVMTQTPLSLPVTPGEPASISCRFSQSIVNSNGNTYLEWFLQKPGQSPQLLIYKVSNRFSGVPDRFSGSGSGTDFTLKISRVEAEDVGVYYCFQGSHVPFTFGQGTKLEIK ) = 2.6
